# condition_parameters: in n-propanol, 283.15 K
quantity_measured: solubility (mole fraction)

chemical_smiles: CC(=O)O[C@]1(C(C)=O)CC[C@H]2[C@@H]3C[C@H](C)C4=CC(=O)CC[C@]4(C)[C@H]3CC[C@@]21C
quantity_measured: solubility (mole fraction)
observed_value: 0.00089

---

# condition_parameters: in isobutanol, 313.15 K
quantity_measured: solubility (mole fraction)

chemical_smiles: CC(=O)O[C@]1(C(C)=O)CC[C@H]2[C@@H]3C[C@H](C)C4=CC(=O)CC[C@]4(C)[C@H]3CC[C@@]21C
quantity_measured: solubility (mole fraction)
observed_value: 0.00463

---

# condition_parameters: in isopropyl acetate, 303.15 K

chemical_smiles: CC(=O)O[C@]1(C(C)=O)CC[C@H]2[C@@H]3C[C@H](C)C4=CC(=O)CC[C@]4(C)[C@H]3CC[C@@]21C
solubility (mole fraction): 0.00497
